Test system: Canis familiaris
Assay: Cardiac stimulant activity in iv dosed dog assessed as dose producing 50% increase in contractile force
Type: functional, Canis lupus familiaris
readout name: Activity (×10⁻⁸ mol/kg)
I only need the number, in ×10⁻⁸ mol/kg, no unit after it.

| compound | subject of test | scale unit | Activity |
| --- | --- | --- | --- |
| Cl.NCCc1ccc(O)c(O)c1 [DOPAMINE HYDROCHLORIDE] | Canis familiaris | ×10⁻⁸ mol/kg | 4.8 |
| Cl.N[C@@H]1C[C@H]1c1ccc(O)c(O)c1 (racemic) | Canis familiaris | ×10⁻⁸ mol/kg | 19.5 |
| CC(C)NCC(O)c1ccc(O)c(O)c1.Cl (centres undefined) [ISOPROTERENOL HYDROCHLORIDE] | Canis familiaris | ×10⁻⁸ mol/kg | 0.014 |

Next item in the queue.
Prompt: Requested read-out Activity, target or system Canis familiaris, entry Cl.N[C@@H]1C[C@@H]1c1ccc(O)c(O)c1 (racemic)
Completion: 312.3

====

Activity values for the compounds below.
Tested on: Canis familiaris
Assay: Cardiac stimulant activity in iv dosed dog assessed as increase in heart rate
Format: functional, Canis lupus familiaris
# unit: bpm | format: bare number

Example entries begin here.
| compound | Activity [bpm] |
| --- | --- |
| Cl.NCCc1ccc(O)c(O)c1 [DOPAMINE HYDROCHLORIDE] | 5 |
| Cl.N[C@@H]1C[C@H]1c1ccc(O)c(O)c1 (racemic) | -2 |
| Cl.N[C@@H]1C[C@@H]1c1ccc(O)c(O)c1 (racemic) | 32 |

Turning now to a further record.
Prompt: Need Activity of CC(C)NCC(O)c1ccc(O)c(O)c1.Cl (centres undefined) [ISOPROTERENOL HYDROCHLORIDE] , thanks.
Completion: 16

====

Measured EC50 by item
Experiment: Agonist activity at alpha-adrenergic receptor in rabbit thoracic aorta assessed as […] contraction
Format: tissue-based, Oryctolagus cuniculus
Value expressed in ×10⁻⁷ mol; do not type the unit.

See these solved cases before continuing.
| molecule | result number |
| --- | --- |
| Cl.N[C@@H]1C[C@H]1c1ccc(O)c(O)c1 (racemic) | 94 |
| Cl.NCCc1ccc(O)c(O)c1 [DOPAMINE HYDROCHLORIDE] | 102 |
| Cl.N[C@@H]1C[C@@H]1c1ccc(O)c(O)c1 (racemic) | 457 |

# context switch: different molecule, same EC50
Prompt: Entry CNC[C@H](O)c1cccc(O)c1.Cl [PHENYLEPHRINE HYDROCHLORIDE] has what EC50?
Completion: 2.3
